# MEASUREMENT_NOTES: qHTS Assay for Lipid Storage Modulators (AID 1519)
# APPLIED_CONDITIONS: Drosophila S3 cells, BODIPY lipid droplet/cell ratio, laser cytometry; measured here: cell count channel max response; cells loaded with oleic acid
Inconclusive results are not listed.
MEASUREMENT_LABEL: max response (%)
Answers are plain numbers, in %.

Clc1ccc(CSC(Cn2ccnc2)c2ccc(Cl)cc2Cl)cc1 (stereo not drawn) = -1.1
OC(c1ccccc1)(c1ccccc1)C1CCNCC1 = -4.3
CCCCCCCCCCCCCCCC[n+]1ccccc1 = -21.8
Cc1ccc(N=CN(C)C=Nc2ccc(C)cc2C)c(C)c1 = 10.9
CCNc1nc(Cl)nc(NCC)n1 = 11.4

Could you tell me max response for each of these molecules? They are listed below.
1. C[C@H](N)[C@H](O)c1ccc(O)c(O)c1
2. O=C(NC(=O)c1c(F)cccc1F)Nc1cc(Cl)c(OC(F)(F)C(F)C(F)(F)F)cc1Cl (stereo not drawn)
3. Clc1ccc(CO/N=C(\Cn2ccnc2)c2ccc(Cl)cc2Cl)c(Cl)c1
4. COc1ccc(CN2CCNCC2)c(OC)c1OC
5. Clc1ccc(C(OCCN2CCCCC2)c2ccccc2)cc1 (stereo not drawn)
6. O=C(O)c1nn(Cc2ccc(Cl)cc2Cl)c2ccccc12
7. CN1[C@@H]2CC[C@H]1CC(OC(=O)c1cc(Cl)cc(Cl)c1)C2 (stereo partly drawn)

Outgoing:
-12
4.92
-2.06
-6.25
15.5
45.4
20.8

Incoming: For CNC(=O)Oc1ccc2c(c1)[C@]1(C)CCN(C)[C@@H]1N2C , what is its reported max response?
Outgoing: -15.1

###

# MEASUREMENT_NOTES: Cell Viability - LYMP2-017 (AID 972);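 further: potency means the concentration at half of the fitted maximal effect; cells exposed to compound for 24 hours at 37 °C; nearly all actives have a fitted effect of over 55% in size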
# APPLIED_CONDITIONS: LYMP2-017 lymphoblastoid cell viability; series mostly up to 92.2 µM
Results filed as inconclusive are left out. Activity calls are given as the source filed them. Calls follow the shape of the dose curve; as a rule, active = well fitted cell-killing curve with a large enough effect; inconclusive = small, poorly fitted or top-dose-only effect; inactive = flat fitted curve, though single readings scatter.
MEASUREMENT_LABEL: Potency

Batch request: Potency for each of the following compounds.
1. CC[n+]1c(-c2ccccc2)c2cc(N)ccc2c2ccc(N)cc21
2. COC(=O)C1=C(C)NC(C)=C(C(=O)OC)C1c1ccccc1[N+](=O)[O-]
3. CN(C)C(=S)SSC(=S)N(C)C
4. C[C@@H]1C[C@@H]([C@H](O)CC2CC(=O)NC(=O)C2)C(=O)[C@@H](C)C1
5. O=C(CCl)c1ccc(Cl)cc1Cl

Outgoing:
1: 15.8 µM (active); 2: 50.1 µM (active); 3: 0.199 µM (active); 4: 1.58 µM (active); 5: 3.16 µM (active)

###

# System: PA-1
# MEASUREMENT_NOTES: Primary qHTS to identify gynecologic anti-cancer compounds using libraries of approved drugs and bioactive compounds (AID 1345084); further: nearly all actives have a fitted effect of over 55% in size; further: potency means the concentration at half of the fitted maximal effect
# APPLIED_CONDITIONS: Gynecologic cancer cell panel viability, ATPlite luminescence, 48 h; series mostly up to 57.5 µM
Results filed as inconclusive are left out. The source made the active and inactive calls. The call rests on the fitted dose curve; in most records, active means well fitted cell-killing curve with a large enough effect; inconclusive means small, poorly fitted or top-dose-only effect, or effect the other way; inactive means flat fitted curve, though single readings scatter.
MEASUREMENT_LABEL: Potency

Below, 4 compounds whose answers are already recorded.
CNC(C)Cc1ccccc1OC (configuration not stated) = inactive
c1cc2c(c(N3CCNCC3)c1)OCCO2 = inactive
CCN1CCCC1CNC(=O)C(O)(c1ccccc1)c1ccccc1 (configuration not stated) = inactive
Oc1ccc([C@H]2CNCc3c2ccc(O)c3O)cc1O = inactive

The following compounds each have a reported value; give each one's Potency.
1. CCOC(=O)NC(C)(C)Cc1ccc(Cl)cc1
2. COc1ccc(CN2CCNCC2)c(OC)c1OC

Outgoing:
inactive
inactive

Dear reader, for each entry below, please note its Potency.
1. COc1cc(C[C@@H](C)N)c(OC)cc1Br
2. O=C1CN2CCOC2(c2ccccc2Cl)c2cc(Cl)ccc2N1 (configuration not stated)
3. O=c1n(Cl)c(=O)n(Cl)c(=O)n1Cl

Outgoing:
["inactive", "inactive", "inactive"]

Provide Potency for all items below, preserving their order.
1. C[C@H](CN1CCOCC1)C(C(=O)N1CCCC1)(c1ccccc1)c1ccccc1
2. Cc1ccc([N+](=O)[O-])[c]2c1[O][Hg]2
3. COc1cc(N)c(Cl)cc1C(=O)NC1CN2CCC1CC2 (configuration not stated)
4. O=C(CCCCl)c1ccc(F)cc1
5. C[C@H]1C(=O)O[C@@H]2CCN3CC=C(COC(=O)[C@](C)(O)[C@]1(C)O)[C@H]23
6. COc1cc(CC#N)cc(OC)c1OC
7. C[C@]12CC[C@H](O)CC1=CC[C@@H]1[C@@H]2CC[C@]2(C)C(=O)CC[C@@H]12
8. CCc1cc(OC)c(C[C@H](C)N)cc1OC

Outgoing:
1: inactive; 2: 2.82 µM (active); 3: inactive; 4: inactive; 5: inactive; 6: inactive; 7: inactive; 8: inactive

Would you mind listing Potency for each of the following compounds?
1. Cc1nc2ccccc2c(=O)n1-c1ccccc1Cl
2. CCCC(C)C1(CC)C(=O)N=C(S)NC1=O (configuration not stated)

Outgoing:
1: inactive; 2: inactive
